system: HS 578T breast; assay: NCI-60 one-dose screen, 48 h (100 = growth as untreated, 0 = no growth, -100 = all killed); conditions: 10 µM unless noted
The panel holds about 83,000 compounds, 20% with a hit somewhere; the sample as a whole holds those more often. Activity calls are given as the source filed them. The calls were made as follows: active = growth percent below 10; inactive = the rest.
ENDPOINT_LABEL: growth

[[record]]
structure_smiles_string = "CCCn1nc(-c2ccccc2)c2c(-c3ccccc3)onc2c1=O"
endpoint_label = "growth"
value_observed = "67.7% (inactive)"

[[record]]
structure_smiles_string = "CO[C@H]1/C=C/O[C@@]2(C)Oc3c(C)c(O)c4c(c3C2=O)C(=O)C(/C=N/N(c2ccccc2)c2ccccc2)=C(NC(=O)/C(C)=C\\C=C\\[C@H](C)[C@H](O)[C@@H](C)[C@@H](O)[C@@H](C)[C@H](OC(C)=O)[C@@H]1C)C4=O"
endpoint_label = "growth"
value_observed = "-0.488% (active)"

[[record]]
structure_smiles_string = "OCCCCc1nccc2c1[nH]c1ccccc12"
endpoint_label = "growth"
value_observed = "106% (inactive)"

[[record]]
structure_smiles_string = "C[N+](C)(C)CCOC(OCC[N+](C)(C)C)(c1ccccc1)c1ccccc1"
endpoint_label = "growth"
value_observed = "115% (inactive)"


* * *

test system: MDA-MB-231 breast; experiment: NCI-60 one-dose screen, 48 h (100 = growth as untreated, 0 = no growth, -100 = all killed); details: 10 µM unless noted
Compounds without any hit were thinned out: in the full panel of roughly 83,000, 20% have a hit.
Field: class. Source value: growth. Ranges: LOW = under 50%, MID = from 50% up to 90%, HIGH = 90% and over

[[record]]
structure_smiles_string = "N#C/C(=C\\c1ccc(Br)cc1)n1nnc2ccccc21"
classification = "LOW"

[[record]]
structure_smiles_string = "c1ccc(-c2oc3ccccc3c2-c2ccccc2)cc1"
classification = "HIGH"

[[record]]
structure_smiles_string = "CNC(=O)c1cc(Oc2ccc3nc(Nc4cc(Cl)cc(Cl)c4)ccc3c2)ccn1"
classification = "LOW"

[[record]]
structure_smiles_string = "NC(=O)CC1(O)C=C(Br)C(=O)C(Br)=C1"
classification = "HIGH"

[[record]]
structure_smiles_string = "Clc1ccc(-c2nnc(-c3ccco3)o2)cc1"
classification = "HIGH"

[[record]]
structure_smiles_string = "O=C1C2=C(CCN(Cc3ccccc3)C2)N2CCN=C2N1Cc1ccc(C(F)(F)F)cc1"
classification = "LOW"

[[record]]
structure_smiles_string = "O=[N+]([O-])c1cccc(/C=C/c2ccccn2)c1"
classification = "MID"

[[record]]
structure_smiles_string = "COc1ccc(-c2nnc(-c3ccc4c(c3)nc(-c3ccccc3)n4C3CCCCC3)o2)cc1"
classification = "MID"


* * *

Tested on: UACC-62 melanoma
Experiment: NCI-60 one-dose screen, 48 h
Conditions: 10 µM unless noted
Method: Growth inhibition of the UACC-62 human tumor cell line is measured as a screen for anti-cancer activity. Cells are grown in 96 well plates and exposed to the test compound for 48 hours. Compounds are tested at a single concentration, which is 10^-5 M for most compounds. The reported endpoint is percent growth (GI% or GIPRCNT), where numbers from 0 - 100% represent growth inhibition, and numbers from -100% - 0 represent cell death. For example, a value of 40 represents 60% growth inhibition. […]
This is part of a sample that, as a whole, favours compounds with a hit. Of some 83,000 tested, about 20% had one in any assay. The source made the active and inactive calls. The calls were made as follows: active = growth percent below 10; inactive = the rest.
Labels: True for active, False for inactive

[[record]]
molecule = "COc1cc2c(cc1OC)-c1ccc3cc4c(cc3c1N(CCN(C)C)C2)OCO4"
classification = "True"

[[record]]
molecule = "O=[N+]([O-])c1ccc2[nH]cc(-c3c4ccsc4cc4[nH]c5ccc([N+](=O)[O-])cc5c34)c2c1"
classification = "False"

[[record]]
molecule = "CN1CCN(c2ccc(Nc3ncc(Cl)c(NC[C@@H]4CCCO4)n3)cc2)CC1"
classification = "False"

[[record]]
molecule = "CCOc1cc(N)ccc1C(=O)NCCCN(CC)CC"
classification = "False"

[[record]]
molecule = "CCCCN1CCN(c2ccc3nc(-c4ccc5nc(-c6cc(OC)c(OC)c(OC)c6)[nH]c5c4)[nH]c3c2)CC1"
classification = "False"

[[record]]
molecule = "Clc1ccc(/C=N\\N=c2\\scc(-c3ccc(Cl)cc3)n2/N=C/c2ccc(Cl)cc2)cc1"
classification = "False"

[[record]]
molecule = "Cc1[nH]c(-c2nc3ccccc3[nH]2)c(C)c1C(=O)NNc1ccc(Cl)cc1"
classification = "False"

[[record]]
molecule = "CCCNCC(=O)Nc1ccc(C(=O)OC(C)(C)CC)cc1"
classification = "False"

[[record]]
molecule = "C=C1C(=O)O[C@H]2[C@H]1CC/C(Cn1cc(CNCCc3c[nH]c4ccc(Cl)cc34)nn1)=C\\CC[C@@]1(C)O[C@@H]21"
classification = "False"

[[record]]
molecule = "Nc1nc(N)c(-c2ccc(Cl)cc2)c(/C=C/c2ccc([N+](=O)[O-])cc2)n1"
classification = "False"

[[record]]
molecule = "COC(=O)c1ccc2oc(NC(=O)c3ccc(N4CCOCC4)c([N+](=O)[O-])c3)nc2c1"
classification = "False"

[[record]]
molecule = "CO[C@H]1/C=C/O[C@@]2(C)Oc3c(C)c(O)c4c(c3C2=O)C(=O)C(/C=N/N(c2ccccc2)c2ccccc2)=C(NC(=O)/C(C)=C\\C=C\\[C@H](C)[C@H](O)[C@@H](C)[C@@H](O)[C@@H](C)[C@H](OC(C)=O)[C@@H]1C)C4=O"
classification = "True"

[[record]]
molecule = "O=C1NN(C(=O)c2ccc(O)cc2)C(c2ccccc2)=N/C1=C\\c1cn(-c2ccccc2)nc1-c1ccccc1"
classification = "False"

[[record]]
molecule = "CCNCCNc1cc(-c2cccc(C(F)(F)F)c2)c(C#N)c2nc3ccccc3n12"
classification = "True"

[[record]]
molecule = "COc1ccc(/C=C2\\C=C(c3ccccc3)N(CCc3ccccc3)C2=O)cc1OC"
classification = "False"

[[record]]
molecule = "Cc1nc(Nc2ccc(NC(=S)Nc3ccccc3)cc2)c2ccccc2n1"
classification = "False"

[[record]]
molecule = "CC(C)OCCCNCC(=O)Nc1ccc(S(=O)(=O)c2ccc(NC(=O)CNCCCOC(C)C)cc2)cc1"
classification = "False"

[[record]]
molecule = "CCC(=O)OC1=C(C)SC2=NC(c3ccc(Cl)c(Cl)c3)=CC(c3cc(OC)c(OC)c(OC)c3)N21 (centres undefined)"
classification = "False"

[[record]]
molecule = "COc1cc(C2C=C(c3cccc(NC(C)=O)c3)Nc3ncnn32)cc(OC)c1OC (centres undefined)"
classification = "False"

[[record]]
molecule = "Clc1ccc(-c2cn(-c3ccccc3)c(-c3ccccc3)n2)cc1"
classification = "False"

[[record]]
molecule = "O=C(CC12CC3CC(CC(C3)C1)C2)NCCOCCOCCNC(=O)c1cc2c(o1)C(=O)c1ccccc1C2=O"
classification = "True"

[[record]]
molecule = "Cc1ccc2c(n1)C(=O)C(Oc1ccc(F)cc1)=CC2=O"
classification = "False"

[[record]]
molecule = "CCCCCCNc1cc(C)nc2ccc(OC)cc12"
classification = "False"

[[record]]
molecule = "CCCCC1COc2cccc3c(SCC(=O)N(C)c4cccc(Cl)c4)cc[n+]1c23 (centres undefined)"
classification = "False"

[[record]]
molecule = "O=C(/C=C/C12c3ccccc3C(c3ccccc31)C1C(=O)N(c3ccccc3)C(=O)C12)c1ccccc1 (centres undefined)"
classification = "True"

[[record]]
molecule = "C=C1c2c(C)nn(-c3ccc(O)cc3)c2N(C)C23C[C@@H]1C1(C)c4c(C)nn(-c5ccc(O)cc5)c4N(C)C(C)(C[C@H]12)C3 (some centres undefined)"
classification = "False"

[[record]]
molecule = "Cl.[Pt].[c-]1ccccc1-c1ccccn1.c1ccc(P(c2ccccc2)C([PH+](c2ccccc2)c2ccccc2)[PH+](c2ccccc2)c2ccccc2)cc1"
classification = "False"

[[record]]
molecule = "COc1cc2c(cc1OC)-c1ccc3cc4c(cc3c1N(CCCN1CCCCC1)C2)OCO4"
classification = "False"

[[record]]
molecule = "[2H]c1nc(Nc2ncc(F)c(-c3cc(F)c4nc(C)n(C(C)C)c4c3)n2)c([2H])c([2H])c1CN1CCN(C([2H])([2H])C([2H])([2H])[2H])CC1"
classification = "False"

[[record]]
molecule = "CN1C(=O)CCC(N2C(=O)c3cccc(NCCOCCOCCNC(=O)c4cc5c(o4)C(=O)c4ccccc4C5=O)c3C2=O)C1=O (centres undefined)"
classification = "True"

[[record]]
molecule = "COC(=O)/C(=C\\c1ccc(OC)cc1)C(=O)N1c2ccccc2Sc2ccccc21"
classification = "False"

[[record]]
molecule = "CCN(CC)CCCC(C)NCc1ccccc1 (centres undefined)"
classification = "False"

[[record]]
molecule = "CCOC(=O)c1sc(-c2ccc(OS(=O)(=O)c3ccc(C(C)(C)C)cc3)c(C=O)c2)nc1C"
classification = "False"

[[record]]
molecule = "CN1CCN(C(=O)[C@]23CCC(C)(C)C[C@@H]2C2=CC[C@@H]4[C@@]5(C)Cc6c([nH]c7ccccc67)C(C)(C)[C@@H]5CC[C@@]4(C)[C@]2(C)CC3)CC1"
classification = "False"

